Where these numbers come from: ChEMBL document CHEMBL1201862

Some substances, each annotated with its measured GI50.
System: SK-MEL-28
assay-explanation: NCI tumour cell line growth inhibition, 48 h
Hit rate of the full screen: of about 57,000 sequences, about 2,300 (4%) were called active. Not all results are given here. Entries with a potency or affinity are not part of this list.

- substance: "[Bis(aminomethyl)diethylsilane]tetrachloroplatinum(IV), CHEMBL2146203"
  experimental-result: "1720 nM"
- substance: "[Bis(aminomethyl)pentamethylenesilane]tetrachloropaltinum(IV), CHEMBL2146204"
  experimental-result: "1230 nM"
- substance: "mu-(1,7-nanodiamine-N,N')bis-(cis-aminedichloroplatimum (II)), CHEMBL2146215"
  experimental-result: "10200 nM"

Q) Which GI50 reading was recorded for the substance [Bis(aminomethyl)ethylmethylsilane]tetrachloroplatinum(IV), CHEMBL2146192 ?
A) 2760 nM

Q) Which GI50 reading was recorded for the substance [Bis(aminomethyl)tetramethylenesilane]tetrachloropaltinum(IV), CHEMBL2146189 ?
A) 2850 nM

Q) Which GI50 reading was recorded for the substance CISPLATIN, CHEMBL11359 ?
A) 4430 nM
